# Test system: MRC-5 cells (normal fibroblasts)
# test-method-notes: Fibroblast assay (MTT)
# Type: cell-based
# settings: Table 3, unit inferred; read-out: Fib IC50
Below is a list of entries, each paired with its recorded IC50 value.

- substance: "(KAAKKAA)3 W7,9,16 [KA 32]"
  experimental-value: "> 422 µM"
- substance: "(KAAKKAA)3 W2,3,20,21 [KA19]"
  experimental-value: "374 µM"
- substance: "(OAAOOAA)3 W7,9,14,16 [KA14]"
  experimental-value: "60 µM"
- substance: "KKAWKWAKKAWKWAKKA [KA18]"
  experimental-value: "115 µM"

# next substance below
Sample (KAAKKAA)3 Bip9,16 [KA27] — what was its IC50?
> 429 µM

====

# System: MRC-5 cells (normal fibroblasts)
# test-method-notes: Fibroblast assay (MTT)
# Type: cell-based
# settings: Table 3, unit inferred; read-out: Fib IC50
# Experimental: The cells were washed with PBS and then trypsinated using 2 ml trypsin (for a 80 cm culture flask). After the cells had detached from the wall, usually after ca 3 min. of incubation, 5 ml medium with FBS were added. The cells were resuspended and counted. The cells were then transferred to a centrifugation tube and spinned at 1500 rpm for 10 min. The supernatant was removed and the cells resuspended to a concentration of 1×10^5 cells/ml. […]
assay-readout: IC50

Record excerpt, results attached:
- substance: "(KAAKKAA)3 W7,16,17 [KA24]"
  experimental-target: "MRC-5 cells (normal fibroblasts)"
  assay-readout: "IC50"
  experimental-value: "> 422 µM"
- substance: "(KAAKKAA)3 W2,9,16,20 [KA 8]"
  experimental-target: "MRC-5 cells (normal fibroblasts)"
  assay-readout: "IC50"
  experimental-value: "23 µM"
- substance: "KKWAKKAWKWAKKAW [KA22, 15-mer]"
  experimental-target: "MRC-5 cells (normal fibroblasts)"
  assay-readout: "IC50"
  experimental-value: "> 514 µM"
- substance: "(KAAKKAA)3 W7,10,17 [KA23]"
  experimental-target: "MRC-5 cells (normal fibroblasts)"
  assay-readout: "IC50"
  experimental-value: "> 422 µM"
- substance: "(KAAKKAA)3 F2,9,16,20 [KA17]"
  experimental-target: "MRC-5 cells (normal fibroblasts)"
  assay-readout: "IC50"
  experimental-value: "> 429 µM"

What IC50 value was documented for this substance, (KAAKKAA)3 W9,16 [KA 7] ?
> 444 µM

Then what about the substance WKWAKKAWKWAKKAA [KA21, 15-mer] ?
> 530 µM

====

# Tested on: human red blood cells
# test-method-notes: Hemolytic assay
# Type: cell-based
# settings: Table 3, unit inferred; read-out: RBC EC50
Let's look at some substances and their measured EC50.

- substance: "(KAAKKAA)3 W2,9,16,20 [KA 8]"
  experimental-value: "> 402 µM"
- substance: "KKWAKKAWKWAKKAW [KA22, 15-mer]"
  experimental-value: "> 514 µM"
- substance: "(KAAKKAA)3 W7,9,14,16 [KA 4]"
  experimental-value: "> 402 µM"
- substance: "WKWAKKAWKWAKKAA [KA21, 15-mer]"
  experimental-value: "> 530 µM"
- substance: "(KAAKKAA)3 W9,16 [KA 7]"
  experimental-value: "> 444 µM"

Fill in: EC50 of (KAAKKAA)3 Bip9,16 [KA27] is ___
> 429 µM

Lookup (KAAKKAA)3 W2,3,20,21 [KA19]
> 402 µM

Again, but for (KAAKKAA)3 F2,9,16,20 [KA17]
> 429 µM

====

Measured EC50 by item
# Tested on: human red blood cells
# test-method-notes: Hemolytic assay
# Assay type: cell-based
# settings: Table 3, unit inferred; read-out: RBC EC50
# Experimental: The hemolytic activities of the peptides were determined using fresh human red blood cells. 8 ml blood was taken from a healthy person. […] The hematocrit in the blood treated with EDTA was determined after 30 min with Sysmex K-1000, and the resuspended RBCs were diluted into 10% hematocrit. […] The supernatant were carefully transferred to new polycarbonate tubes and the absorbance of the supernatant was measured at 540 nm. […]

Before answering, review these 2 worked examples.
- substance: "(KAAKKAA)3 W7,9,16 [KA 32]"
  EC50: "> 422 µM"
- substance: "(KAAKKAA)3 W2,9,16 [KA 5]"
  EC50: "> 422 µM"

Now for the substance whose EC50 we want.
Find the recorded EC50 belonging to WKWAKKAAKWAWKAA [KA20, 15-mer] and report it.
> 546 µM

====

This listing pairs substances with measured pIC50.
# System: MRC-5 cells (normal fibroblasts)
# test-method-notes: Fibroblast assay (MTT)
# Assay type: cell-based
# settings: Table 3, unit inferred; read-out: Fib IC50
# pIC50 is unitless: minus log10 of the molar concentration; print number only

Here is how some substances turned out for pIC50.
- substance: "(KAAKKAA)3 W7,9,14,16 [KA 4]"
  pIC50: 4.52
- substance: "(KAAKKAA)3 W2,9,16 [KA 5]"
  pIC50: 3.52
- substance: "(KAAKKAA)3 W2,3,20 [KA15]"
  pIC50: 3.61

Okay, now this substance:
Requested read-out pIC50, target or system MRC-5 cells (normal fibroblasts), entry WKWAKKAAKWAWKAA [KA20, 15-mer]
3.51

====

Reported pEC50 values follow for various substances
# Tested on: human red blood cells
# test-method-notes: Hemolytic assay
# Assay type: cell-based
# settings: Table 3, unit inferred; read-out: RBC EC50
pEC50: −log10 of the molar value.

Solved entries (count: 5):
- substance: "(OAAOOAA)3 W7,9,14,16 [KA14]"
  experimental-target: "human red blood cells"
  assay-readout: "pEC50"
  experimental-value: "< 3.37"
- substance: "(KAAKKAA)3 W7,16,17 [KA24]"
  experimental-target: "human red blood cells"
  assay-readout: "pEC50"
  experimental-value: "< 3.37"
- substance: "(KAAKKAA)3 W6,10,17 [KA 31]"
  experimental-target: "human red blood cells"
  assay-readout: "pEC50"
  experimental-value: "< 3.37"
- substance: "(KAAKKAA)3 W2,3,20 [KA15]"
  experimental-target: "human red blood cells"
  assay-readout: "pEC50"
  experimental-value: "< 3.37"
- substance: "KKAWKWAKKAWKWAKKA [KA18]"
  experimental-target: "human red blood cells"
  assay-readout: "pEC50"
  experimental-value: "< 3.35"

Consider the record given below.
pEC50 for (KAAKKAA)3 W7,10,17 [KA23] ?
< 3.37
